These measurements were taken from patent US20220177604A1.

assay-target: T1, recombinant Motavizumab human IgE (rMota-hIgE) (human, UniProt P01854 1-428)
T1 construct: also called Recombinant IgE (argenx)
T1 sequence (P01854 other isoform, or with tags, fused parts or gaps limits assumed, form in doubt): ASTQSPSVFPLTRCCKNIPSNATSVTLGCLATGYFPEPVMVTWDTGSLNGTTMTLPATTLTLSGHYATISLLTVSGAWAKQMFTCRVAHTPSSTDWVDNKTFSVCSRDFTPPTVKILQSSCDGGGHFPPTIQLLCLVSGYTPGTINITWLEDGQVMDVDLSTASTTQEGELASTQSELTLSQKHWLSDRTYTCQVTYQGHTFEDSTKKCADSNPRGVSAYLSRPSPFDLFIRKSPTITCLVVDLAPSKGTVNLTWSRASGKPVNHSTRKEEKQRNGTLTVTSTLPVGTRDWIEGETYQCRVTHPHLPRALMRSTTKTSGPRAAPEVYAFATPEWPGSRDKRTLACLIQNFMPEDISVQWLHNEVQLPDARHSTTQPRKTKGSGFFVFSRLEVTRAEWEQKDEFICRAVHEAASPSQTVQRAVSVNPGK
assay-summary: hIgE binding ELISA
property-name: Ratio EC50 pH 5.5/7.4
Respond numerically, and do not add a unit to the figure.

These recorded examples may help you get a feel for the data.
binder | number
OMA VH15 - VL3D28H (antibody, V domains shown, also called OMA VH15 VL3D25H) VH: EVQLVESGGGLVQPGGSLRLSCAVSGYSITSGHRWEWIRQAPGKGLEWVASIHYDGSTNYNPSVKGRITISRDDSKNTFYLQMNSLRAEDTAVYYCARATHYFGHWHFAVWGQGTLVTVSS VL: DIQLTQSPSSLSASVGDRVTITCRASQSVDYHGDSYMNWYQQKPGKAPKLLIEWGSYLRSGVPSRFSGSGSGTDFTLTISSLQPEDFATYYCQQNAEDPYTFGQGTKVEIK | 1
OMA VH15 - VL3S31H (antibody, V domains shown) VH: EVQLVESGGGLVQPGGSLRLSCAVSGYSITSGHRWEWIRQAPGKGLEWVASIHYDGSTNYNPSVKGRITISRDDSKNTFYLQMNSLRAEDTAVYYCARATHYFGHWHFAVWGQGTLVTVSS VL: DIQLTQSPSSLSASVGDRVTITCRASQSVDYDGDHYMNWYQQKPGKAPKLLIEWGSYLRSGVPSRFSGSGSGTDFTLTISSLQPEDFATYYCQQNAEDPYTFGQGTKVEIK | 0.9

// lookup Ratio EC50 pH 5.5/7.4 for OmaVH15G55HW100b - VL3 (antibody, V domains shown) VH: EVQLVESGGGLVQPGGSLRLSCAVSGYSITSGHRWEWIRQAPGKGLEWVASIHYDHSTNYNPSVKGRITISRDDSKNTFYLQMNSLRAEDTAVYYCARATHYFGHHHFAVWGQGTLVTVSS VL: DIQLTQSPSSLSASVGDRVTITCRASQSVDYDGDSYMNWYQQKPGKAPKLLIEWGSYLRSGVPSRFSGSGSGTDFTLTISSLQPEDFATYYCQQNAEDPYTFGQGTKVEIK
13.5
